test: Half-life was evaluated by chemical hydrolysis; assay type: ADME
ATTRIBUTE MEASURED: half-life (min)
Write the number in min without appending the unit.

QUERY: // lookup half-life for CC(C)(C)NCC(O)c1cc2cccc(CC(=O)OCCC34C[C@H]5C[C@@H](C3)C[C@@H](C4)C5)c2o1 (some centres not stated)
RESULT: 150

QUERY: Another: CSCOC(=O)Cc1cccc2cc(C(O)CNC(C)(C)C)oc12 (configuration not stated)
RESULT: 25

QUERY: Same for COC(=O)Cc1cccc2cc(C(O)CNC(C)(C)C)oc12 (configuration not stated)
RESULT: 7.2

QUERY: Here is the next compound: CCOC(=O)Cc1cccc2cc(C(O)CNC(C)(C)C)oc12 (configuration not stated)
RESULT: 8.2

QUERY: Next compound: CC(C)OC(=O)Cc1cccc2cc(C(O)CNC(C)(C)C)oc12 (configuration not stated)
RESULT: 45.7

QUERY: Follow-up item: CC(C)(C)NCC(O)c1cc2cccc(CC(=O)OC3CCCCC3)c2o1 (configuration not stated)
RESULT: 15.2

QUERY: Try this compound too: CC(C)(C)NCC(O)c1cc2cccc(CC(=O)OC(C)(C)C)c2o1 (configuration not stated)
RESULT: 75.7

###

experiment: Half-life in rat blood evaluated by enzymatic hydrolysis; type: ADME
I'd appreciate it if you could supply half-life values for the items below.

QUERY: Dear colleague, I am looking for the recorded half-life of the following compound: COC(=O)Cc1cccc2cc(C(O)CNC(C)(C)C)oc12 (stereo unspecified)
RESULT: < 0.15 min

QUERY: Item: CC(C)(C)NCC(O)c1cc2cccc(CC(=O)OCCC34C[C@H]5C[C@@H](C3)C[C@@H](C4)C5)c2o1 (stereo partly specified)
RESULT: < 0.15 min

QUERY: Please give the result for CC(C)(C)NCC(O)c1cc2cccc(CC(=O)OC3CCCCC3)c2o1 (stereo unspecified) too.
RESULT: 6.2 min

QUERY: Now the compound CC(C)OC(=O)Cc1cccc2cc(C(O)CNC(C)(C)C)oc12 (stereo unspecified)
RESULT: 16.6 min

QUERY: Next compound up: CSCOC(=O)Cc1cccc2cc(C(O)CNC(C)(C)C)oc12 (stereo unspecified)
RESULT: < 0.15 min

QUERY: Next record, please: CC(C)(C)NCC(O)c1cc2cccc(CC(=O)OC(C)(C)C)c2o1 (stereo unspecified)
RESULT: 99 min

###

test: Half-life in rat blood; evaluated by enzymatic hydrolysis; format: ADME
ATTRIBUTE MEASURED: half-life

QUERY: State the recorded half-life for this entry: CCOC(=O)Cc1cccc2cc(C(O)CNC(C)(C)C)oc12 (stereo unspecified)
RESULT: < 9 s

Origin of the recorded values: ChEMBL document CHEMBL1133717
